Measurement Target: STING AQ: His-TVMV-S-hSTING(155-341)-G230A-R293Q (Homo sapiens, UniProt Q86WV6, G230A/H232R/R293Q)
Construct: STING AQ: His-TVMV-S-hSTING(155-341)-G230A-R293Q
Sequence (Q86WV6 with tags, fused parts or gaps G230A/H232R/R293Q): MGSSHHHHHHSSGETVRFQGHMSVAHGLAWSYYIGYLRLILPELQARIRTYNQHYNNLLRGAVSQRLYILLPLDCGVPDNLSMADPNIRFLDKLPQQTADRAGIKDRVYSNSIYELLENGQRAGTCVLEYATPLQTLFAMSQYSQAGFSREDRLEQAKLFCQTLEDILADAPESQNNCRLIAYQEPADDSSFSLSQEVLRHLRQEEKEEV
Test: STING HTRF competition binding assay, STING AQ
Condition Notes: 20 nM His-tagged STING cytoplasmic domain AQ, 40 nM fluorescein-labeled cGAMP analog probe, one hour; read-out: HTRF Binding Assays IC50 AQ
pIC50: −log10 of the molar value.
Measured pIC50 of individual entries

Compound	pIC50
NC(=O)c1cc([C@@H]2O[C@@H]3COP(=O)(S)O[C@H]4[C@@H](F)[C@H](n5cnc6c(N)ncnc65)O[C@@H]4COP(=O)(S)O[C@@H]2[C@@H]3O)[nH]n1 (single isomer, unassigned) [Example 1-2]	7.52
NC(=O)c1cc([C@@H]2O[C@@H]3COP(=O)(S)O[C@H]4[C@@H](F)[C@H](n5cnc6c(N)ncnc65)O[C@@H]4COP(=O)(S)O[C@@H]2[C@@H]3O)[nH]n1 (single isomer, unassigned) [Example 1-3]	8.00
NC(=O)c1cc([C@@H]2O[C@@H]3COP(O)(=S)O[C@H]4[C@@H](F)[C@H](n5cnc6c(N)ncnc65)O[C@@H]4COP(O)(=S)O[C@@H]2[C@@H]3O)[nH]n1 (stereo partly shown)	7.40
NC(=O)c1cc([C@@H]2O[C@@H]3COP(=O)(S)O[C@H]4[C@@H](F)[C@H](n5cnc6c(N)ncnc65)O[C@@H]4COP(=O)(S)O[C@@H]2[C@@H]3O)[nH]n1 (single isomer, unassigned) [Example 1-1]	7.05

Just for reference, patent US11667663B2 is where these values come from.
